Provide the recorded # Sites in PHH (off-target integration sites detected) for the entries that follow.
# Tested on: potential off-target genomic sites
# protocol: Off-target analysis by oligo insertion based assay in primary human hepatocytes (sgRNAs)
# Type: cell-based
# experimental_context: 100 ng Cas9 mRNA, 25 nM sgRNA, 12.5 nM donor oligo, 48 h
Strand notation (5' to 3'): a small letter for the sugar, then the base; units joined by * are phosphorothioate-linked, units joined directly phosphodiester-linked; [ ] holds rarer units or linkages, { } end groups; capitals alone tell only the bases. m = 2'-O-methyl; r = 2'-OH (RNA)
Number only, please.

Input line: Field request: # Sites in PHH (off-target integration sites detected) | item: G000568: TTR sgRNA modified sequence, Human, SEQ ID NO: 110; guide sequence of CR003391 (nucleic acid) guide: mG*mG*mC*rUrGrUrCrGrUrCrArCrCrArArUrCrCrCrArGrUrUrUrUrArGrAmGmCmUmAmGmAmAmAmUmAmGmCrArArGrUrUrArArArArUrArArGrGrCrUrArGrUrCrCrGrUrUrArUrCrAmAmCmUmUmGmAmAmAmAmAmGmUmGmGmCmAmCmCmGmAmGmUmCmGmGmUmGmCmU*mU*mU*mU
Output line: 11

Input line: Field request: # Sites in PHH (off-target integration sites detected) | item: G000500: TTR sgRNA modified sequence, Human, SEQ ID NO: 107; guide sequence of CR003337 (nucleic acid) guide: mC*mC*mA*rGrUrCrCrArGrCrArArGrGrCrArGrArGrGrGrUrUrUrUrArGrAmGmCmUmAmGmAmAmAmUmAmGmCrArArGrUrUrArArArArUrArArGrGrCrUrArGrUrCrCrGrUrUrArUrCrAmAmCmUmUmGmAmAmAmAmAmGmUmGmGmCmAmCmCmGmAmGmUmCmGmGmUmGmCmU*mU*mU*mU
Output line: 12

Input line: Field request: # Sites in PHH (off-target integration sites detected) | item: G000482: TTR sgRNA modified sequence, Human, SEQ ID NO: 89; guide sequence of CR003365 (nucleic acid) guide: mU*mG*mU*rArGrArArGrGrGrArUrArUrArCrArArArGrGrUrUrUrUrArGrAmGmCmUmAmGmAmAmAmUmAmGmCrArArGrUrUrArArArArUrArArGrGrCrUrArGrUrCrCrGrUrUrArUrCrAmAmCmUmUmGmAmAmAmAmAmGmUmGmGmCmAmCmCmGmAmGmUmCmGmGmUmGmCmU*mU*mU*mU
Output line: 2
